# test: In situ single-pass rat intestinal perfusion
# Assay type: in vivo
# experimentalContext: rat, outlet intestinal perfusate, other: in situ single-pass intestinal perfusion, 100 μg/mL, rat intestinal perfusion, 15 min; read-out: Outlet concentration of PMX (Cout)
observedProperty: concentration at 15 min (µg/mL)
Give a bare numeral; the unit µg/mL is implied.

Entry Nc1nc2[nH]cc(CCc3ccc(C(=O)N[C@@H](CCC(=O)O)C(=O)O)cc3)c2c(=O)[nH]1 ; concentration at 15 min = 93.1

====

# test: In vitro Caco-2 cell monolayer permeability
# Format: in vitro ADME
# experimentalContext: human, equivalent to 50 µg/mL PMX, n = 7, read-out: Apparent permeability (Papp)
observedProperty: Papp at 5 h, 50 µg/mL (×10⁻⁶ cm/s)
Note: unit ×10⁻⁶ cm/s is implicit; provide only the numeric part.

Record Nc1nc2[nH]cc(CCc3ccc(C(=O)N[C@@H](CCC(=O)O)C(=O)O)cc3)c2c(=O)[nH]1 . Reported Papp at 5 h, 50 µg/mL: 1.2
